settings: in ethanol, 340 K
Metric: solubility (mole fraction)
One number for each entry.

Please report the recorded solubility (mole fraction) for CO[C@H]1C[C@@H]2CC[C@@H](C)[C@@](O)(O2)C(=O)C(=O)N2CCCC[C@H]2C(=O)O[C@H]([C@H](C)C[C@@H]2CC[C@@H](O)[C@H](OC)C2)CC(=O)[C@H](C)/C=C(\C)[C@@H](O)[C@@H](OC)C(=O)[C@H](C)C[C@H](C)/C=C/C=C/C=C/1C .
0.00291

----------
details: in chloroform, 295 K
Metric: solubility (mole fraction)
Give bare numbers.

Please report the recorded solubility (mole fraction) for CO[C@H]1C[C@@H]2CC[C@@H](C)[C@@](O)(O2)C(=O)C(=O)N2CCCC[C@H]2C(=O)O[C@H]([C@H](C)C[C@@H]2CC[C@@H](O)[C@H](OC)C2)CC(=O)[C@H](C)/C=C(\C)[C@@H](O)[C@@H](OC)C(=O)[C@H](C)C[C@H](C)/C=C/C=C/C=C/1C .
0.00272
